The reported numbers originate from PubChem BioAssay AID729.

- system name: Sphingosine 1-phosphate receptor 2 (Homo sapiens) (UniProt O95136)
- Sequence (O95136 whole entry, looked up): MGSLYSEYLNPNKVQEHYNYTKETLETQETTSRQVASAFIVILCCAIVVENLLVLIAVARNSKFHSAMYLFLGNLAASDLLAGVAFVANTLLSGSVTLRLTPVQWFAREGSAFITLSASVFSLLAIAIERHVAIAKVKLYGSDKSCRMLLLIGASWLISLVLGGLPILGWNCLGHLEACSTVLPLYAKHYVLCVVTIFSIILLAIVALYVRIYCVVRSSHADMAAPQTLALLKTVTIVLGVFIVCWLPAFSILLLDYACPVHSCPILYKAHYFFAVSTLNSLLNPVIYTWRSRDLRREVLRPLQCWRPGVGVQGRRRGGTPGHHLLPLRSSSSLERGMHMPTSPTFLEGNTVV
- method: activation of human S1P2 receptor – cell-based, primary screen (AID 729);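 also: 0% = vehicle low control and 100% = maximal reference agonist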
- condition set: S1P2-expressing cell line, agonist reporter read-out; at 4.5 µM
Out of some 97,000 compounds screened, about 450 (0.46%) were called active. Rule as the data show it: active = activation above about 16%; inactive = the rest. This excerpt belongs to a sample that is enriched for actives.
Please state which outcome applies, choosing from 1 (yes) = active, 0 (no) = inactive

Please review the following examples before continuing.
CCOC(=O)c1c(N)n(Cc2ccccc2)c2nc3ccccc3nc12 : 0 (no)
CCOC(=O)c1c(N)n(CCN2CCOCC2)c2nc3ccccc3nc12 : 0 (no)
COc1cc(Cn2c(N)c(C(=O)NCc3ccco3)c3nc4ccccc4nc32)cc(OC)c1OC : 1 (yes)
O=c1c2ccccc2nc(-c2ccc(Cl)cc2Cl)n1-c1ccncc1 : 0 (no)

Let us examine a further case.
Look up the recorded call for OC(Cn1c2ccccc2c2ccccc21)C[n+]1ccccc1 (stereo not given) in this test.
0 (no)
